Just for reference, PubChem BioAssay (NCATS) is where these values come from.

- measurementContext: Ebola virus entry assay, green fluorescence channel
Entries with a potency or affinity are not part of this list.
testReadout: efficacy (%)
Express it in %; write the number only.

CC(=O)CCC(=O)O    10.9

Query: Given Cc1c(F)cc2c(=O)c(C(=O)O)cn3c2c1CCC3C (stereo not drawn) , state its recorded efficacy.
Result: 17.9

* * *

- measurementContext: Ebola virus entry assay, reporter ratio channel; Channel type: primary
Active and inactive are the calls of the source. How the calls were made is not given here.
Parameter call: string, one of active, inactive

Query: Which result was noted for this compound in the test: COc1cccc2c1C(=O)c1c(O)c3c(c(O)c1C2=O)C[C@@](O)(C(C)=O)C[C@@H]3O[C@H]1C[C@H](N)[C@H](O)[C@H](C)O1
Result: active

Query: What would you report for O=S(=O)(O)NC1CCCCC1 ?
Result: inactive

Query: What would you report for CN(C)c1ccc(C(=C2C=CC(=[N+](C)C)C=C2)c2ccc(N(C)C)cc2)cc1 ?
Result: active

Query: What would you report for CN1Cc2c(N)cccc2C(c2ccccc2)C1 (centres undefined) ?
Result: active

Query: What would you report for c1ccc(CC2=NCCN2)cc1 ?
Result: inactive

* * *

- measurementProtocol: qHTS of pediatric cancer cell lines to identify multiple opportunities for drug repurposing: Primary screen for SK-N-SH cells (AID 1347098); also: nearly all actives have a fitted effect of over 65% in size
- measurementContext: SK-N-SH viability, CellTiter-Glo luminescence, 48 h; series mostly up to 57 µM
- Protocol: Drug repurposing or repositioning has been offered as a strategy for drug development in oncology programs. […] [1] Shen, M et al. Quantitative high-throughput phenotypic screening of pediatric cancer cell lines identifies multiple opportunities for drug repurposing. […] Cells were assayed in growth media at a density of 500-1,000 cells/well. […] After a 15 min incubation at room temperature, samples were analyzed for luminescence intensity using a ViewLux High-throughput CCD imager equipped with clear filters.
Inconclusive results are not listed. Active and inactive are the calls of the source. Calls come from the whole dose curve; as a rule, active = well fitted cell-killing curve with a large enough effect; inconclusive = small, poorly fitted or top-dose-only effect; inactive = no such curve, though single readings can be large or run the other way.
Parameter call: string, one of true = active, false = inactive

See these solved cases before continuing.
CCCC(C)C1(CC)C(=O)N=C(S)NC1=O (stereo unspecified)    false
CCCC[N+]1(C)[C@@H]2CC(OC(=O)[C@H](CO)c3ccccc3)C[C@H]1[C@@H]1O[C@@H]12 (stereo partly specified)    false
CC(C)C(Br)C(=O)NC(N)=O (stereo unspecified)    false
CCc1ccc(C2CCNCC2)cc1    false
COc1ccc2c3c1O[C@H]1[C@@H](O)C=C[C@H]4[C@@H](C2)N(C)CC[C@@]341    true
CN(C)CCc1c[nH]c2ccc(O)cc12    false

Query: Which result was noted for this molecule in the test: CNC(C)Cc1ccc2c(c1)OCO2 (stereo unspecified)
Result: false

* * *

- Test system: Hek293T
- measurementProtocol: Primary qHTS to identify gynecologic anti-cancer compounds using libraries of approved drugs and bioactive compounds (AID 1345084); also: nearly all actives have a fitted effect of over 55% in size
- measurementContext: Gynecologic cancer cell panel viability, ATPlite luminescence, 48 h, control line for the selectivity index; series mostly up to 57.5 µM
Inconclusive results are not listed. Calls of active or inactive are those of the source. The call rests on the fitted dose curve; in most records, active means well fitted cell-killing curve with a large enough effect; inconclusive means small, poorly fitted or top-dose-only effect, or effect the other way; inactive means flat fitted curve, though single readings scatter.
Parameter call: string, one of active, inactive

COc1ccc(C(=O)N2CCCC2=O)cc1    inactive
Cc1ccc([N+](=O)[O-])[c]2c1[O][Hg]2    active
C[C@]12CC[C@H]3[C@@H](CCC4=CC(=O)CC[C@@H]43)[C@@H]1CC[C@@H]2O    inactive
CN1C(=O)CN=C(c2ccccc2)c2cc([N+](=O)[O-])ccc21    inactive
CC(C(O)c1ccccc1)N(C)C/C=C/c1ccccc1 (centres undefined)    inactive
C[C@H]1C(=O)O[C@@H]2CCN3CC=C(COC(=O)[C@](C)(O)[C@]1(C)O)[C@H]23    inactive
NC(=O)CN1CCCC1=O    inactive
Clc1ccc(C(OCCN2CCCCC2)c2ccccc2)cc1 (centres undefined)    inactive
NC1(c2ccccc2)CCCCC1    inactive
C#C[C@]1(O)CC[C@H]2[C@@H]3CCC4=CC(=O)CCC4=C3C=C[C@@]21CC    inactive

Query: Which result was noted for this compound in the test: CC(C)(O)C(Cl)(Cl)Cl
Result: inactive
